biological target: Luciferin 4-monooxygenase (Photinus pyralis); experiment: qHTS profiling assay for firefly luciferase inhibitor/activator using purifed enzyme and Km concentrations of substrates (counterscreen for miR-21 project); details: purified FLuc, luminescence inhibition; series mostly up to 57.5 µM; further: nearly all actives have a fitted effect of over 55% in size; further: potency means the concentration at half of the fitted maximal effect
Hit rate of the full screen: of about 360,000 compounds, about 25,000 (6.9%) were called active. Not shown: some 9% with an inconclusive outcome. The list comes from a sample in which actives are over-represented; it also holds close analogues and randomly drawn compounds.

compound	Potency
CC1CCC(C(C)C)C(=O)/C1=C\c1ccc(NC(=O)CCC(=O)O)cc1 (centres undefined)	16.9 µM (active)
COc1cccc(-n2c(=O)c3c(C)c(C(=O)N(C)C)sc3n(Cc3cccc(C)c3)c2=O)c1	inactive
Cc1cc(C(F)(F)F)nc(SCC(=O)Nc2nccs2)n1	inactive
Cc1c(C(N)=O)sc2ncn(CCOc3ccccc3)c(=O)c12	inactive
